List of log10 of IC50 values.
system: Replicase polyprotein 1ab (Severe acute respiratory syndrome coronavirus 2, UniProt P0DTD1)
measured_parameter: log10 of IC50 (log10 of the value in nM)

INSERT INTO assay_data (smiles_data, reported_result) VALUES
  ('O=C(/C=C/c1c(Cl)c(O)c(O)c(O)c1Cl)c1ccccc1F', 2.37),
  ('O=C(/C=C/c1c(Cl)c(O)c(O)c(O)c1Cl)c1c(Cl)c(O)c(O)c(O)c1Cl', 2.06),
  ('O=C(/C=C/c1c(Cl)c(O)c(O)c(O)c1Cl)c1ccc(F)cc1', 1.92),
  ('O=C(/C=C/c1c(Cl)c(O)c(O)c(O)c1Cl)c1ccc(F)cc1F', 2.12),
  ('O=C(/C=C/c1c(Cl)c(O)c(O)c(O)c1Cl)c1cccs1', 2.33),
  ('Oc1cc(CCCc2ccc(F)cc2)cc(O)c1O', 3.38),
  ('O=C(/C=C/c1c(Cl)c(O)c(O)c(O)c1Cl)c1ccc(-c2ccc(F)cc2)cc1', 3.03),
  ('O=C(/C=C/c1c(Cl)c(O)c(O)c(O)c1Cl)c1ccc(Cl)cc1Cl', 2.49),
  ('O=C(/C=C/c1c(Cl)c(O)c(O)c(O)c1Cl)c1ccc(C(F)(F)F)cc1', 2.65),
  ('O=C(/C=C/c1c(Cl)c(O)c(O)c(O)c1Cl)c1ccc(Cl)c(Cl)c1', 2.62),
  ('O=C(O)/C=C/c1c(Cl)c(O)c(O)c(O)c1Br', 3.54),
  ('O=C(CCc1cc(O)c(O)c(O)c1)c1ccc(F)cc1', 3.25),
  ('O=C(/C=C/c1cc(O)c(O)c(O)c1Cl)c1ccc(F)cc1', 2.63),
  ('O=C(/C=C/c1cc(O)c(O)c(O)c1)c1ccc(F)cc1', 2.42),
  ('O=C(/C=C/c1c(Cl)c(O)c(O)c(O)c1Cl)c1ccc(Br)cc1', 2.90),
  ('O=C(/C=C/c1c(Cl)c(O)c(O)c(O)c1Cl)c1ccc(F)cc1Cl', 2.49),
  ('O=C(/C=C/c1c(Cl)c(O)c(O)c(O)c1Cl)c1ccc([N+](=O)[O-])cc1', 2.44),
  ('CC(=O)Oc1c(Cl)c(/C=C/C(=O)c2ccc(F)cc2)c(Cl)c(OC(C)=O)c1OC(C)=O', 2.39),
  ('O=C(/C=C/c1c(Cl)c(O)c(O)c(O)c1Cl)c1c(Cl)cc(Cl)cc1Cl', 2.61),
  ('O=C(/C=C/c1c(Cl)c(O)c(O)c(O)c1Cl)c1ccco1', 1.98),
  ('O=C(/C=C/c1c(Cl)c(O)c(O)c(O)c1Cl)c1c(Cl)cc(F)cc1Cl', 2.61),
  ('O=C(O)/C=C/c1c(Cl)c(O)c(O)c(O)c1Cl', 2.92),
  ('O=C(O)[C@H](O)Cc1ccc(O)c(O)c1', 3.33),
  ('O=C(/C=C/c1c(Cl)c(O)c(O)c(O)c1Cl)c1ccc(O)cc1', 2.28),
  ('O=C(/C=C/c1c(Cl)c(O)c(O)c(O)c1Cl)c1ccc(Cl)cc1', 2.80),
  ('O=C(/C=C/c1c(Cl)c(O)c(O)c(O)c1Cl)c1ccccc1', 2.16);

From: ChEMBL document CHEMBL6078649
